# target: FRK (Homo sapiens)
# Construct: purchased Carna Biosciences
# Sequence (P42685 whole entry): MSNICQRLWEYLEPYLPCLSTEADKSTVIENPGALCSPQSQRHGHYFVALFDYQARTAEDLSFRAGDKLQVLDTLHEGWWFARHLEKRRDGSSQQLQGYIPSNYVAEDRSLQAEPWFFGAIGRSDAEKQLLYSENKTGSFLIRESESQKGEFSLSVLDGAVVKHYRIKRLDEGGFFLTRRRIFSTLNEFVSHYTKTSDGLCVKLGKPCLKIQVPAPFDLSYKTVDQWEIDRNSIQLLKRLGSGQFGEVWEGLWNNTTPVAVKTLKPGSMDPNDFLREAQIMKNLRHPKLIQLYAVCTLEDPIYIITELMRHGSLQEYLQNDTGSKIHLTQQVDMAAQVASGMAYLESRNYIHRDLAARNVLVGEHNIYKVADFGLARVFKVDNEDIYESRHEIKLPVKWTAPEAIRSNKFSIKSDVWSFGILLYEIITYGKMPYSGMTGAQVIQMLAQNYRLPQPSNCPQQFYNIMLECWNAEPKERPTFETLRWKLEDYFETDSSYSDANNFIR
# procedure-details: Kinase panel profiling at 1 µmol/L (mobility shift assay, Carna)
# Type: biochemical
# test-context: 1 µmol/L of BTK inhibitor
readout-type: Percentage inhibition of kinase enzyme activity (%)
Give just the numeric value; % need not be written.

Examples from the recorded data:
COc1ccc(F)cc1C(=O)NCc1ccc(-c2nn([C@@H](C)C(F)(F)F)c(N)c2C(N)=O)cc1 [pirtobrutinib] ... 13.63
C=CC(=O)N1CCC([C@@H]2CCNc3c(C(N)=O)c(-c4ccc(Oc5ccccc5)cc4)nn32)CC1 [zanubrutinib] ... 31.32
C=CC(=O)N1CCC[C@@H](n2nc(-c3ccc(Oc4ccccc4)cc3)c3c(N)ncnc32)C1 [ibrutinib] ... 99.53
CC#CC(=O)N1CCC[C@H]1c1nc(-c2ccc(C(=O)Nc3ccccn3)cc2)c2c(N)nccn12 [acalabrutinib] ... 47.48

Let us examine a further case.
Quick check: Percentage inhibition of kinase enzyme activity of O=C(c1ccc(Oc2ccccc2)cc1Cl)c1c[nH]c2ncnc(N[C@@H]3CC[C@@H](CO)OC3)c12 [nemtabrutinib] ? 98.79
